assay: solvent given as SMILES; details: in CS(C)=O
VALUE_KIND: emission maximum (nm)
Express it in nm; write the number only.

Input: Answer with reported emission maximum of COc1ccc(-c2c3nc(cc4ccc([nH]4)c(-c4ccc(OC)c(OCC(=O)O)c4)c4nc(cc5ccc2[nH]5)CC4)CC3)cc1OCC(=O)O
Output: 738

Input: Answer with reported emission maximum of CCCCOc1ccc(-c2cc3c(o2)c(-c2ccc(OCCCC)cc2)c2n3[B-](F)(F)[N+]3=Cc4c(-c5ccc(OCCCC)cc5)c5oc(-c6ccc(OCCCC)cc6)cc5n4[B-](F)(F)[N+]3=C2)cc1
Output: 672

Input: Answer with reported emission maximum of CC1(C)C(/C=C/c2cc3ccc(O)cc3oc2=O)=[N+](CCCS(=O)(=O)[O-])c2ccc3c(S(=O)(=O)O)cc(S(=O)(=O)O)cc3c21
Output: 625

====

assay: solvent given as SMILES; details: in C1CCCCC1
VALUE_KIND: emission maximum (nm)
Express it in nm; write the number only.

Input: Answer with reported emission maximum of COC(=O)c1noc(-c2ccccc2)c1Br
Output: 344

Input: Answer with reported emission maximum of CCCCC(CC)CN1C(=O)c2cccc3c(C#Cc4ccc(N(c5ccccc5)c5ccc(C#Cc6ccc7c8c(cccc68)C(=O)N(CC(CC)CCCC)C7=O)cc5)cc4)ccc(c23)C1=O (centres undefined)
Output: 472

Input: Answer with reported emission maximum of Oc1cccc2ccccc12
Output: 344.23

Input: Answer with reported emission maximum of c1ccc2c(c1)Cc1cc3c(cc1-2)Cc1ccccc1-3
Output: 340

Input: Answer with reported emission maximum of COC(=O)c1nc(Cl)c(-c2ccccc2)o1
Output: 344

Input: Answer with reported emission maximum of CCC(C)(C)c1ccc2c(c1)C(CC)(CC)c1cc(-c3ccc(-c4ccc5c(c4)C(CC)(CC)c4cc(C(C)(C)CC)ccc4-5)cc3)ccc1-2
Output: 381

Input: Answer with reported emission maximum of FC(F)(F)c1ccc(/C=C/c2nc3c(ccc4ccccc43)s2)cc1
Output: 432

Input: Answer with reported emission maximum of CCCC1(CCC)c2ccccc2-c2ccccc21
Output: 309

Input: Answer with reported emission maximum of Cc1ccccc1-c1ccccc1C
Output: 318.98

====

test: solvent given as SMILES; conditions: in C1CCCCC1
Given measured emission maximum, output 1 if it is greater than or equal to 400 nm and -1 if not.

Input: Please check the record CC(C)CCC[C@@H](C)[C@H]1CC[C@H]2[C@@H]3CC=C4C[C@@H](OC(=O)Oc5cc(/C=C/C=C/c6ccc(N(C)C)cc6)ccc5[N+](=O)[O-])CC[C@]4(C)[C@H]3CC[C@]12C and state if its emission maximum is at or above 400 nm.
Output: 1

Input: Please check the record CN(C)c1ccc2nc(/C=C/c3ccccc3)c(=O)oc2c1 and state if its emission maximum is at or above 400 nm.
Output: 1

Input: Please check the record C[Si](C)(C)c1ccc([Si](C)(C)C)c2ccccc12 and state if its emission maximum is at or above 400 nm.
Output: -1

Input: Please check the record c1ccc(-c2ccc(-c3ccc4c(c3)CCO4)cc2)cc1 and state if its emission maximum is at or above 400 nm.
Output: -1

Input: Please check the record CCCCCCCCCCCCCCCCOc1cc(C#Cc2ccc3ccccc3c2)c(OCCCCCCCCCCCCCCCC)cc1C#Cc1ccc(C=C(C#N)C#N)cc1 and state if its emission maximum is at or above 400 nm.
Output: 1

Input: Please check the record COc1ccc2c(c1)-c1ccccc1C2=O and state if its emission maximum is at or above 400 nm.
Output: 1

Input: Please check the record CC1(C)CC(/N=C/c2ccc3ccc4cccc5ccc2c3c45)CC(C)(C)N1[O] and state if its emission maximum is at or above 400 nm.
Output: -1
